Species on record: Rattus norvegicus
Experiment: Open TG-GATES - Regimen: Single
Type: toxicity, organism-based, Sprague-Dawley
Parameters: regimen Single, gender Male, age 6 weeks
Conditions: in vivo, po, 0 mg/kg, 24 h, tissue Plasma, route gavage, dose level Control
Assay Endpoint: BUN (mg/dL)
Express it in mg/dL; write the number only.

Worked examples follow.
ClC(Cl)(Cl)Cl [CARBON TETRACHLORIDE]    15
CCc1oc2ccccc2c1C(=O)c1cc(Br)c(O)c(Br)c1 [BENZBROMARONE]    16.8
OCCOCCN1CCN(C(c2ccccc2)c2ccc(Cl)cc2)CC1 (stereo not given) [HYDROXYZINE]    14.8

query: For the compound CC1=C(CC(=O)O)c2cc(F)ccc2/C1=C\c1ccc([S+](C)[O-])cc1 (stereo not given) , give its measured BUN value.
result: 13.2

query: For the compound O=NN1CCOCC1 [N-NITROSOMORPHOLINE] , give its measured BUN value.
result: 15.9
